Test system: Methicillin-sensitive S. aureus (MTCC 737)
experimentalDetails: MIC, micro-dilution broth, MSSA
Assay type: cell-based
testParameters: Staphylococcus aureus, MTCC 737; read-out: MIC MSSA
Assign MIC to each entry below.
API: value field is a number in µM; no unit string.

Indicate the recorded MIC value for this compound: CCCCCCCCN[C@]1(C)C[C@H](OC2C(O)[C@@H](O)C(CO)O[C@@H]2Oc2c3cc4cc2Oc2ccc(cc2Cl)[C@@H](O)[C@@H](NC(=O)[C@@H](CC(C)C)NC)C(=O)N[C@@H](CC(N)=O)C(=O)N[C@H]4C(=O)N[C@H]2C(=O)N[C@H](C(=O)N[C@H](C(=O)O)c4cc(O)cc(O)c4-c4cc2ccc4O)[C@H](O)c2ccc(c(Cl)c2)O3)OC(C)[C@@H]1O (stereo partly shown)
0.3

Indicate the recorded MIC value for this compound: CCCCCCCCCCCCN[C@]1(C)C[C@H](OC2C(O)[C@@H](O)C(CO)O[C@@H]2Oc2c3cc4cc2Oc2ccc(cc2Cl)[C@@H](O)[C@@H](NC(=O)[C@@H](CC(C)C)NC)C(=O)N[C@@H](CC(N)=O)C(=O)N[C@H]4C(=O)N[C@H]2C(=O)N[C@H](C(=O)N[C@H](C(=O)NCCCNC(=O)[C@H](O)[C@@H](O)[C@H](OC4OC(CO)C(O)C(O)C4O)[C@H](O)CO)c4cc(O)cc(O)c4-c4cc2ccc4O)[C@H](O)c2ccc(c(Cl)c2)O3)OC(C)[C@@H]1O (stereo partly shown)
0.2

Indicate the recorded MIC value for this compound: CN[C@H](CC(C)C)C(=O)N[C@H]1C(=O)N[C@@H](CC(N)=O)C(=O)N[C@H]2C(=O)N[C@H]3C(=O)N[C@H](C(=O)N[C@H](C(=O)NCCCNC(=O)[C@H](O)[C@@H](O)[C@H](O)[C@H](O)CO)c4cc(O)cc(O)c4-c4cc3ccc4O)[C@H](O)c3ccc(c(Cl)c3)Oc3cc2cc(c3O[C@H]2OC(CO)[C@H](O)C(O)C2O[C@H]2C[C@@](C)(N)[C@H](O)C(C)O2)Oc2ccc(cc2Cl)[C@H]1O (stereo partly shown)
0.6

Indicate the recorded MIC value for this compound: CCCCCCCCCCCCN[C@]1(C)C[C@H](OC2C(O)[C@@H](O)C(CO)O[C@@H]2Oc2c3cc4cc2Oc2ccc(cc2Cl)[C@@H](O)[C@@H](NC(=O)[C@@H](CC(C)C)NC)C(=O)N[C@@H](CC(N)=O)C(=O)N[C@H]4C(=O)N[C@H]2C(=O)N[C@H](C(=O)N[C@H](C(=O)O)c4cc(O)cc(O)c4-c4cc2ccc4O)[C@H](O)c2ccc(c(Cl)c2)O3)OC(C)[C@@H]1O (stereo partly shown)
0.3
